Target: T1, human transferrin receptor (recombinant, for surface plasmon resonance) (human, UniProt P02786 89-760)
T1 construct: also called huTfR; human transferrin receptor-biotinylated
T1 sequence (P02786 89-760 limits assumed): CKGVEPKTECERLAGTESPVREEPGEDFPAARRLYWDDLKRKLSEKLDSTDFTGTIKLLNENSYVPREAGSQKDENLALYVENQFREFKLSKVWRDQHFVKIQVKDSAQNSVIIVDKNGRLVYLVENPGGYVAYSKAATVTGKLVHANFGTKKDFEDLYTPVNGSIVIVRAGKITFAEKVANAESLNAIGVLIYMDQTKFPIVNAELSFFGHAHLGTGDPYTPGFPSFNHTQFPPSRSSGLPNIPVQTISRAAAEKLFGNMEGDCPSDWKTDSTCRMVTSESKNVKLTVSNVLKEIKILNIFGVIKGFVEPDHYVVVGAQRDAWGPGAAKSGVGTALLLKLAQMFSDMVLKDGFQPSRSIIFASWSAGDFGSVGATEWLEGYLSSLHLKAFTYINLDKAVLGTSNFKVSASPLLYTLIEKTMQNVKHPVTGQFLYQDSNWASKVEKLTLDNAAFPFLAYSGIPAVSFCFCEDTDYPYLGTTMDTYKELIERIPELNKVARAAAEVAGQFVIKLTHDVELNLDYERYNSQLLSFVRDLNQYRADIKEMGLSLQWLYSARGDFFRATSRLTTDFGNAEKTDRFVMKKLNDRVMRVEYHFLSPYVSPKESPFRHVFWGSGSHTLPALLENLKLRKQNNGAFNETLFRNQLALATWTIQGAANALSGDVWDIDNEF
Experiment: SPR 25C
measured_endpoint: koff (s⁻¹)
Output spec: scalar in s⁻¹, unitless text.

binder	unit_spec	observed_measurement
2/99 VH19/VL5 (antibody, V domains shown) VH: QSMQESGPGLVKPSQTLSLTCTVSGFSLSSYAMSWIRQHPGKGLEWIGYIWSGGSTDYAPSLKSRVTISVDTSKNQFSLKLSSVTAADTAVYYCARRYGTSYPDYGDANGFDPWGQGTLVTVSS VL: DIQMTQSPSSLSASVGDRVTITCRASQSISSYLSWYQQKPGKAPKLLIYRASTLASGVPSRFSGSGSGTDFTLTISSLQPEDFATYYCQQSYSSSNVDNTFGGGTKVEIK	s⁻¹	0.001
2/99 VH6/VL6 (antibody, V domains shown) VH: QQLVETGGGLIQPGGSLRLSCAASGFSLSSYAMSWVRQAPGKGLEWIGYIWSGGSTDYADSVKGRFTISRDNSKNTLYLQMNSLRAEDTAVYYCARRYGTSYPDYGDANGFDPWGQGTLVTVSS VL: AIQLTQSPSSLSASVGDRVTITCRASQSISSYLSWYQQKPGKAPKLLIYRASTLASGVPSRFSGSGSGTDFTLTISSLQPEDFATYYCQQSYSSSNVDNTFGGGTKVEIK	s⁻¹	0.00306

Now consider the entry below.
Noted for 2/99 VH17/VL10 (antibody, V domains shown) VH: QQLQESGPGLVKPSETLSLTCTVSGFSLSSYAMSWVRQPPGKGLEWIGYIWSGGSTDYNPSLKSRVTISKDTSKNQVSLKLSSVTAADTAVYYCARRYGTSYPDYGDANGFDPWGPGTLVTVSS VL: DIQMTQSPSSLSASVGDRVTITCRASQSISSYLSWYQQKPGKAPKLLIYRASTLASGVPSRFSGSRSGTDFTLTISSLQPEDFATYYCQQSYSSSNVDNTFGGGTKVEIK : its koff reads 0.00188
